Tested on: Staphylococcus aureus
Assay: Antibacterial activity against methicillin-sensitive Staphylococcus aureus ATCC 9144 measured after overnight incubation by microbroth dilution method
Type: functional
measureName: MIC

1) Cc1cc(CNOCc2ccccc2)c(C)n1-c1ccc(F)cc1
> 64 µg/mL
2) Cc1cc(CN2CCN(C3CCCCC3)CC2)c(C)n1-c1ccc(Cl)cc1
128 µg/mL
3) Cc1ccc(CNCc2cc(C)n(-c3ccc(Cl)cc3)c2C)cc1
64 µg/mL
4) Cc1cc(CNCc2ccccc2)c(C)n1-c1ccc(F)cc1
> 128 µg/mL
5) Cc1cc(CNCCc2ccccc2)c(C)n1-c1ccc(Cl)cc1
32 µg/mL
6) Cc1cc(CNC2C3CC4CC(C3)CC2C4)c(C)n1-c1ccc(Cl)cc1 (configuration not stated)
128 µg/mL
7) Cc1cc(CN2CCN(C3C4CC5CC(C4)CC3C5)CC2)c(C)n1-c1ccc(C(C)C)cc1 (configuration not stated)
32 µg/mL
8) Cc1cc(CNCc2ccc(Cl)cc2)c(C)n1-c1ccc(Cl)cc1
32 µg/mL
9) Cc1cc(CN2CCN(C3C4CC5CC(C4)CC3C5)CC2)c(C)n1-c1ccccc1F (configuration not stated)
32 µg/mL
10) Cc1cc(CN2CCN(C3C4CC5CC(C4)CC3C5)CC2)c(C)n1-c1ccc(Cl)cc1 (configuration not stated)
16 µg/mL
11) Cc1cc(CN2CCN(C3CC4CCC3C4)CC2)c(C)n1-c1ccc(Cl)cc1 (configuration not stated)
64 µg/mL
12) Cc1cccc(-n2c(C)cc(CN3CCN(C4C5CC6CC(C5)CC4C6)CC3)c2C)c1 (configuration not stated)
64 µg/mL
